Assay: Cytotoxicity against human HEK293 cells assessed as inhibition of cell growth at 30 uM incubated for 72 hrs by CCK-8 assay
Format: toxicity, cell-based
// values below are reported inhibition at 72 h, 30 µM

{"smiles": "O=C(Nc1scc(-c2ccc(Cl)cc2)c1C(=O)O)c1cc(F)ccc1F", "inhibition at 72 h, 30 µM": "< 10%"}
{"smiles": "O=C(Nc1scc(-c2ccc(Cl)cc2)c1C(=O)O)c1cc(Cl)ccc1Br", "inhibition at 72 h, 30 µM": "< 10%"}

----------
Target: UniProt:Q9NQ90
Sequence (Q9NQ90 as listed by the source): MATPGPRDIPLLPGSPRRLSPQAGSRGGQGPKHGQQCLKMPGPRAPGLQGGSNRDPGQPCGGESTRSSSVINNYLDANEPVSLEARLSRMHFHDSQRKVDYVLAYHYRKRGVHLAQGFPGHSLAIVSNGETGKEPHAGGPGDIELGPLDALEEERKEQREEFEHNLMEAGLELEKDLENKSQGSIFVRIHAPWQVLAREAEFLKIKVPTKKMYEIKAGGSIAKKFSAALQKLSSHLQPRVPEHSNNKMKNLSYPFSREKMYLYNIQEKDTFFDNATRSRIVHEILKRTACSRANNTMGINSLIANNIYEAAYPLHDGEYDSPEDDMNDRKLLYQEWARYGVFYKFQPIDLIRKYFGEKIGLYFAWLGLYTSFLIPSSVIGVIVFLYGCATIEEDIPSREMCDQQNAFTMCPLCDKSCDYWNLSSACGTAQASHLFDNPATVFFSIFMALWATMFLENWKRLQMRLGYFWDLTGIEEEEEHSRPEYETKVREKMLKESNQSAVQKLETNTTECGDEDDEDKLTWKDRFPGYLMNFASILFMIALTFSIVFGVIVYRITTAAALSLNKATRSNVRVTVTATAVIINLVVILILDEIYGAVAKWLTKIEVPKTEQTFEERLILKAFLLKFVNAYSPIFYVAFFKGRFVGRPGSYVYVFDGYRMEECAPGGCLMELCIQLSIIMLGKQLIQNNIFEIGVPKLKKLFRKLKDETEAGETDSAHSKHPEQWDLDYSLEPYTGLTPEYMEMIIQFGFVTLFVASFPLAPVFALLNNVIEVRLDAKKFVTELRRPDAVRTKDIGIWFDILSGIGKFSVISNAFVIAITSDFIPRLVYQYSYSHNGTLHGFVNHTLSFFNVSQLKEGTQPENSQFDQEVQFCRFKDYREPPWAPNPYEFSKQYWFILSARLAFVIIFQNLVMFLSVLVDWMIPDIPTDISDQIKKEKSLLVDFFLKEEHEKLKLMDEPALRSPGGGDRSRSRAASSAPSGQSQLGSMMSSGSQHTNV
Experiment: Inhibition of human ANO2 expressed in HEK293 cells at 30 uM incubated for 5 mins by whole cell patch clamp electrophysiology relative to control
Type: cell-based
measuredQuantity: inhibition

{"molecule": "O=C(Nc1scc(-c2ccc(Cl)cc2)c1C(=O)O)c1cc(Cl)ccc1Br", "measuredQuantity": "inhibition", "result": "92.6%"}
{"molecule": "CC(C)(C)C1CCc2c(sc(NC(=O)c3ccco3)c2C(=O)O)C1 (centres undefined)", "measuredQuantity": "inhibition", "result": "71.2%"}
{"molecule": "O=C(Nc1scc(-c2ccc(Cl)cc2)c1C(=O)O)c1cc(F)ccc1F", "measuredQuantity": "inhibition", "result": "72.8%"}
{"molecule": "COc1ccccc1/N=N/C(=O)COc1ccc(Cl)cc1C", "measuredQuantity": "inhibition", "result": "12.6%"}

----------
Experiment: Plasma concentration in C57BL/6 mouse at 40 mg/kg,IG measured after 24 hrs by HPLC analysis
Assay type: ADME, organism-based
Settings: po
measuredQuantity: concentration at 24 h (ng/mL)

{"smiles": "O=C(Nc1scc(-c2ccc(Cl)cc2)c1C(=O)O)c1cc(F)ccc1F", "numericValue": 1670}

----------
Experiment: MRT (0 to t) in C57BL/6 mouse at 40 mg/kg,iv measured upto 24 hrs by HPLC-MS/MS analysis
Format: ADME, organism-based
Details: in vivo
measuredQuantity: MRT last at 24 h

{"smiles": "O=C(Nc1scc(-c2ccc(Cl)cc2)c1C(=O)O)c1cc(F)ccc1F", "measuredQuantity": "MRT last at 24 h", "result": "4.9 h"}

----------
Test: AUC (0 to t) in C57BL/6 mouse at 40 mg/kg,IG measured upto 24 hrs by HPLC-MS/MS analysis
Format: ADME, organism-based
Parameters: dose 40 mg/kg, time < 24 hrs, route ig
Conditions: in vivo, po
measuredQuantity: AUC(0-t) at 24 h

{"smiles": "O=C(Nc1scc(-c2ccc(Cl)cc2)c1C(=O)O)c1cc(F)ccc1F", "measuredQuantity": "AUC(0-t) at 24 h", "result": "265 µg·h/mL"}

----------
Experiment: MRT (0 to t) in C57BL/6 mouse at 80 mg/kg,IG measured upto 24 hrs by HPLC-MS/MS analysis
Format: ADME, organism-based
Conditions: in vivo, po

{"smiles": "O=C(Nc1scc(-c2ccc(Cl)cc2)c1C(=O)O)c1cc(F)ccc1F", "uom": "h", "MRT last at 24 h": 7.6}

----------
Assay: Tmax in C57BL/6 mouse at 40 mg/kg,IG measured upto 24 hrs by HPLC-MS/MS analysis
Type: ADME, organism-based
Conditions: in vivo, po

{"smiles": "O=C(Nc1scc(-c2ccc(Cl)cc2)c1C(=O)O)c1cc(F)ccc1F", "Tmax, min": 15}

----------
Test: Clearance in C57BL/6 mouse at 40 mg/kg,iv measured upto 24 hrs by HPLC-MS/MS analysis
Format: ADME, organism-based
Details: in vivo
measuredQuantity: clearance (mL/min/kg)

{"smiles": "O=C(Nc1scc(-c2ccc(Cl)cc2)c1C(=O)O)c1cc(F)ccc1F", "uom": "mL/min/kg", "numericValue": 1.73}

----------
Assay: Bioavailability in C57BL/6 mouse at 40 mg/kg,IG measured upto 24 hrs by HPLC-MS/MS analysis
Type: ADME, organism-based
Settings: in vivo, po

{"smiles": "O=C(Nc1scc(-c2ccc(Cl)cc2)c1C(=O)O)c1cc(F)ccc1F", "bioavailability [%]": 75.7}

----------
Assay: Cmax in C57BL/6 mouse at 80 mg/kg,IG measured upto 24 hrs by HPLC-MS/MS analysis
Type: ADME, organism-based
Design: dose 80 mg/kg, time < 24 hrs, route ig
Settings: in vivo, po
measuredQuantity: Cmax (µg/mL)

{"smiles": "O=C(Nc1scc(-c2ccc(Cl)cc2)c1C(=O)O)c1cc(F)ccc1F", "numericValue": 130}

----------
Test: Cmax in C57BL/6 mouse at 40 mg/kg,IG measured upto 24 hrs by HPLC-MS/MS analysis
Assay type: ADME, organism-based
Set-up: dose 40 mg/kg, time < 24 hrs, route ig
Conditions: in vivo, po

{"smiles": "O=C(Nc1scc(-c2ccc(Cl)cc2)c1C(=O)O)c1cc(F)ccc1F", "uom": "µg/mL", "Cmax": 97.7}

----------
Biological target: Voltage-gated inwardly rectifying potassium channel KCNH2 (Homo sapiens)
Sequence (Q12809 whole entry): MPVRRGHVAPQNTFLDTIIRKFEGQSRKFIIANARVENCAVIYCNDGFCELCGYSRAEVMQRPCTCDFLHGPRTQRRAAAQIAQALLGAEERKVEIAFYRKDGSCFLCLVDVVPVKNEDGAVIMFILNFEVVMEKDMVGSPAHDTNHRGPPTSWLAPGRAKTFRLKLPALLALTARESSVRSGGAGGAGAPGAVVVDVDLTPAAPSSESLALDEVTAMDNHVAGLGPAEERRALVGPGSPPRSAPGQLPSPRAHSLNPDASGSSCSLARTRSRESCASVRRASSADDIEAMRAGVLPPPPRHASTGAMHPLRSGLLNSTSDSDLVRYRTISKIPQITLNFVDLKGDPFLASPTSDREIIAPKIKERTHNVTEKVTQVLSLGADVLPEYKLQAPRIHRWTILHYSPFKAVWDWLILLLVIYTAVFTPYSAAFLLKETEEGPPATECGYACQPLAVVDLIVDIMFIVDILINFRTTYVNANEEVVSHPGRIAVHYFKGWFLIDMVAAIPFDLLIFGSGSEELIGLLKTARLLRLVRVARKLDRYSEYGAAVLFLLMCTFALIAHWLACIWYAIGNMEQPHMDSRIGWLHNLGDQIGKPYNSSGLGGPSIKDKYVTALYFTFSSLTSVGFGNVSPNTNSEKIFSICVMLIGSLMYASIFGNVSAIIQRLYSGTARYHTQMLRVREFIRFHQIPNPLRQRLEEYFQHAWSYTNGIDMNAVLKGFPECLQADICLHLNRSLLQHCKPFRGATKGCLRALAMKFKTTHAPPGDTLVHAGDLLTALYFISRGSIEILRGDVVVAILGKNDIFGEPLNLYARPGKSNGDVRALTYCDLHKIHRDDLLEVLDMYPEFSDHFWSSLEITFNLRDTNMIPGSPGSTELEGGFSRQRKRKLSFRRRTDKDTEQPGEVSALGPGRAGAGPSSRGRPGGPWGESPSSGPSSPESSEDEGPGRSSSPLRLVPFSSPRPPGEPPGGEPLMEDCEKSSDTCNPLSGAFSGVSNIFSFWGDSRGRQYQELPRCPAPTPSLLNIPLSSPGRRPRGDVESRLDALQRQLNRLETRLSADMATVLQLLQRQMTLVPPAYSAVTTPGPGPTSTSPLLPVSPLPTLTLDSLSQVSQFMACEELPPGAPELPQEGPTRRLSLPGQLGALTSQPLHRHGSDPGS
Assay: Cardiotoxicity against human ERG expressed in HEK293 cells by patch clamp assay
// values below are reported IC50

{"smiles": "O=C(Nc1scc(-c2ccc(Cl)cc2)c1C(=O)O)c1cc(F)ccc1F", "IC50": "> 30 µM"}
{"smiles": "O=C(Nc1scc(-c2ccc(Cl)cc2)c1C(=O)O)c1cc(Cl)ccc1Br", "IC50": "> 30 µM"}

The reported measurements were obtained from ChEMBL document CHEMBL5120859.
